target: Vascular endothelial growth factor receptor 2 (Homo sapiens)
Sequence (P35968 whole entry): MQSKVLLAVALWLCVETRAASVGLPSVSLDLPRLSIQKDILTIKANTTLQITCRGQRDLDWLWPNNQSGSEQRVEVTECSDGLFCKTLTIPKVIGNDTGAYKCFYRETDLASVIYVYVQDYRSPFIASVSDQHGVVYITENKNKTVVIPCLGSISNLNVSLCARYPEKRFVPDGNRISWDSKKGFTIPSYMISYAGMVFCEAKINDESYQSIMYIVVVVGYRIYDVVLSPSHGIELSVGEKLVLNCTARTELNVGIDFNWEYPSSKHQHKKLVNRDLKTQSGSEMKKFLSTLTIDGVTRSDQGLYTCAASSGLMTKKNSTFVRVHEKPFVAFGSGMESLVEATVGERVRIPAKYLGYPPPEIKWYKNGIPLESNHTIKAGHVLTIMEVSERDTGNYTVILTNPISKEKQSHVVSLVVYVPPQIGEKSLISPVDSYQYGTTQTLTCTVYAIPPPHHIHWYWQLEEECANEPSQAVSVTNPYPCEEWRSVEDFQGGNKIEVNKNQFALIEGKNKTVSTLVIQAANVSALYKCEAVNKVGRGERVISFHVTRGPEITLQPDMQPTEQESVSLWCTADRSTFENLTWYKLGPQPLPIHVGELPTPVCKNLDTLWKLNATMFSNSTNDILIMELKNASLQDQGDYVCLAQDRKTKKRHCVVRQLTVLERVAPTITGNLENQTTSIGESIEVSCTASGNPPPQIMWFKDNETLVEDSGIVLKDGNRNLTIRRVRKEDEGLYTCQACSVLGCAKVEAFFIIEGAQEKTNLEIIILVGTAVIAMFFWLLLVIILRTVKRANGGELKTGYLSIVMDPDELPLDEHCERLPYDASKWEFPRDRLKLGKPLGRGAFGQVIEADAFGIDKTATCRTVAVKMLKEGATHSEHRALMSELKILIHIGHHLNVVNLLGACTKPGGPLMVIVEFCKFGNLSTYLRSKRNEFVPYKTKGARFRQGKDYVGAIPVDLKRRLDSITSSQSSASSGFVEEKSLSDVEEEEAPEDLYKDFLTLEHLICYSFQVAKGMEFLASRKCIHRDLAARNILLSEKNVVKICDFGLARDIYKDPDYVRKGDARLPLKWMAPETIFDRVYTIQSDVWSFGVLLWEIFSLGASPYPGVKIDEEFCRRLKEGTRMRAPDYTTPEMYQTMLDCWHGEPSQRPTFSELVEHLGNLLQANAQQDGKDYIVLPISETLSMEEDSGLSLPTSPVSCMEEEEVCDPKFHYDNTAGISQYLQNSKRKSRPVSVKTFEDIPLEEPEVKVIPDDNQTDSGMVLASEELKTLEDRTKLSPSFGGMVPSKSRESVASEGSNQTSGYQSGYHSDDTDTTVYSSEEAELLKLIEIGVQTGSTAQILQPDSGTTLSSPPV
Consider the following compounds and their measured IC50 readings.

> print(dat)
                                   compound  result.value
1  Cc1nnsc1C1=NNC(=O)/C1=C\c1cn(C)c2ccc(C#N)cc12      > 300 nM

Okay, next one:
I would be grateful if you could share the reported IC50 for Cc1nnsc1C1=NNC(=O)/C1=C\c1c[nH]c2ccccc12 .
> 1000 nM

---

target: High affinity nerve growth factor receptor (Homo sapiens, UniProt P04629)
Sequence (P04629 whole entry): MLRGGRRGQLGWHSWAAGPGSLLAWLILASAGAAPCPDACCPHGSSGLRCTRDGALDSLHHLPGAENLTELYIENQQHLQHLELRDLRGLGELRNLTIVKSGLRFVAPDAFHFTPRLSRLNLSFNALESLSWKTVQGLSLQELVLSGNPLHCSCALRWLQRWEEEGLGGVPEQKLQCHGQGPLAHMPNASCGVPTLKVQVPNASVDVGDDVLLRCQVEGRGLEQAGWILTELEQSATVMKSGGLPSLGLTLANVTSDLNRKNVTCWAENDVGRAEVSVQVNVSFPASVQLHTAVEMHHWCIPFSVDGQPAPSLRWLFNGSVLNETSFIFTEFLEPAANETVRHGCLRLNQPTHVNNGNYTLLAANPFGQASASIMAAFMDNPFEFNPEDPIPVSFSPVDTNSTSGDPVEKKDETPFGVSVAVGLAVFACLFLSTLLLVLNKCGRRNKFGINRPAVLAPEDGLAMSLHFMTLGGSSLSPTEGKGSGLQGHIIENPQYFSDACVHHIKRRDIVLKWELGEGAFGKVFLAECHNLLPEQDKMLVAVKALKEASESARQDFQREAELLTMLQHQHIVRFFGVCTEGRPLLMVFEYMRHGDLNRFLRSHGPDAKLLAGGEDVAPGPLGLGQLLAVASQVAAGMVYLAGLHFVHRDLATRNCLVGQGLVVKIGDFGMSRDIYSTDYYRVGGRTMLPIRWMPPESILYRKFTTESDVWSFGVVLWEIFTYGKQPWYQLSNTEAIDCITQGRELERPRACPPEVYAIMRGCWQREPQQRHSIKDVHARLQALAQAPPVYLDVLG
Reported property: pIC50
Scale: negative log10 of molar concentration, which is what pIC50 denotes.

Look up pIC50 with High affinity nerve growth factor receptor (Homo sapiens, UniProt P04629) for this molecule: CCOc1cccc2c1c(/C=C1\C(=O)NN=C1c1snnc1C)cn2C
7.44

---

assay: Cmax in rat at 5 mg/kg, po; assay type: ADME, organism-based; set-up: dose 5 mg/kg, route oral; settings: in vivo
Reported property: Cmax (ng/mL)

[P] Cc1nnsc1C1=NNC(=O)/C1=C\c1cn(C)c2ccc(F)cc12
[Q] Cn1cc(/C=C2\C(=O)NN=C2c2nccs2)c2c(F)cccc21
Identify the entry with the larger Cmax. Options: P and Q // respond with label for picked entry
P
(P: 356 ng/mL, Q: 139 ng/mL)

---

target: Proto-oncogene tyrosine-protein kinase Src (Homo sapiens, UniProt P12931)
Sequence (P12931 2-536 limits assumed): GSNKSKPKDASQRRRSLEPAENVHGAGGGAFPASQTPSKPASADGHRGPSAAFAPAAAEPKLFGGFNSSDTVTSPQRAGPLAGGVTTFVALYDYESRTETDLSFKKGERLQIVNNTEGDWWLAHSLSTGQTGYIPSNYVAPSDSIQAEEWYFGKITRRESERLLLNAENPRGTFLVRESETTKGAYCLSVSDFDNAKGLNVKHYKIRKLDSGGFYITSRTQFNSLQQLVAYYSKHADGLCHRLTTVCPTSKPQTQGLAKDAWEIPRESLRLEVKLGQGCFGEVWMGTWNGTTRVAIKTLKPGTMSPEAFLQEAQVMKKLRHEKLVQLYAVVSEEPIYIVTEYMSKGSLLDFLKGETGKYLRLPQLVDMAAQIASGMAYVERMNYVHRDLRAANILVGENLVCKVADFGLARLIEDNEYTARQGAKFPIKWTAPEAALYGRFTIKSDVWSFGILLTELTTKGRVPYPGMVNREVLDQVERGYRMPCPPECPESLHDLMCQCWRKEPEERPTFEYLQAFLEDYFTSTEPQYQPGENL
Reported property: pIC50
Scale: negative log10 of molar concentration, which is what pIC50 denotes.

Look up pIC50 with Proto-oncogene tyrosine-protein kinase Src (Homo sapiens, UniProt P12931) for this compound: CCOc1cccc2c1c(/C=C1\C(=O)NN=C1c1snnc1C)cn2C
6.33

---

molecular target: Vascular endothelial growth factor receptor 3 (Homo sapiens, UniProt P35916)
Sequence (P35916 whole entry): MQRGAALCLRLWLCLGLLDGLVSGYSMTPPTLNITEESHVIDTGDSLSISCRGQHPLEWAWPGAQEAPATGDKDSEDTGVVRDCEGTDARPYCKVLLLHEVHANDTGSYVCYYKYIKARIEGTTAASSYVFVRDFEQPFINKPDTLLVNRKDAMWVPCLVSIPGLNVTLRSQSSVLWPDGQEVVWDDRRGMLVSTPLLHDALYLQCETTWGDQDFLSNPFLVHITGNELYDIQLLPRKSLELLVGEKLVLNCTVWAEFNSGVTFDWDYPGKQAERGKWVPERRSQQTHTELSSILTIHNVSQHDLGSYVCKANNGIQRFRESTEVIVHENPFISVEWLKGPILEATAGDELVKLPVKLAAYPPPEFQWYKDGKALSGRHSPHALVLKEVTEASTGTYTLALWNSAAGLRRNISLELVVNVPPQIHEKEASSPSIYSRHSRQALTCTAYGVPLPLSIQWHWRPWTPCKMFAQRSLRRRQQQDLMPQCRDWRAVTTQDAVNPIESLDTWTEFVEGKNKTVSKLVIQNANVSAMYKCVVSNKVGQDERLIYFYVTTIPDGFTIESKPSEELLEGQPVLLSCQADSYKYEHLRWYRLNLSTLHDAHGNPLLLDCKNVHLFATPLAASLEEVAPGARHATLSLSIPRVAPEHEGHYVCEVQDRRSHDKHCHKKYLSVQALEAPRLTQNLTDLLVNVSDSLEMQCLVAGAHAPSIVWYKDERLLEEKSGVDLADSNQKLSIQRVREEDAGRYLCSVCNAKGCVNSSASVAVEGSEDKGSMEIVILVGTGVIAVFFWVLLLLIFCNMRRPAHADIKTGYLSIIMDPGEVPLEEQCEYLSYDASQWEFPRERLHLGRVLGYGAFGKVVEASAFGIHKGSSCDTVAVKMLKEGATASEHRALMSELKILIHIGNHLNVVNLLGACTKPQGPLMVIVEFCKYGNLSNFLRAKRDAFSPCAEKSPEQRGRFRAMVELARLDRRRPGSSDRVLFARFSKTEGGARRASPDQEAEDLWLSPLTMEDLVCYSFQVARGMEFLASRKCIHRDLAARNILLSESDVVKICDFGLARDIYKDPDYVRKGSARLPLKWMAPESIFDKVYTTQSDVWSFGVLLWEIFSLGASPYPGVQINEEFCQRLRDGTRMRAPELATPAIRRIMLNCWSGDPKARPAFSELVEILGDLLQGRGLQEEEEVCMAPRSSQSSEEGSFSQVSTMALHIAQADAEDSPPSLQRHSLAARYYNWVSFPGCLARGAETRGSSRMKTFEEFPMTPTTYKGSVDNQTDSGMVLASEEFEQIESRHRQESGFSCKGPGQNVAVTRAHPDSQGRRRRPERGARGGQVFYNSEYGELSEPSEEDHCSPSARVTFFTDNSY
Reported property: IC50 (nM)
Provide only the numeric value, understood in nM.

Look up IC50 with Vascular endothelial growth factor receptor 3 (Homo sapiens, UniProt P35916) for this compound: CCOc1cccc2c1c(/C=C1\C(=O)NN=C1c1snnc1C)cn2C
16
